Listing of entries alongside the reported % inhibition of biotinylated nAbs (biotinylated m72A1).
biological target: T1, EBV gp350 stably expressed on CHO cells (Epstein-Barr virus, UniProt P03200); experiment: Epitope mapping by competitive cell binding assay with biotinylated mAbs; conditions: unlabeled mAb 250 μg/ml; biotinylated m72A1 1 μg/ml
T1 construct: stably co-transfected with full-length pCAGGS-gp350/220 and pCI-puro vector; expressed in transfected cells; host or cells: CHO cells
T1 sequence (P03200 whole entry): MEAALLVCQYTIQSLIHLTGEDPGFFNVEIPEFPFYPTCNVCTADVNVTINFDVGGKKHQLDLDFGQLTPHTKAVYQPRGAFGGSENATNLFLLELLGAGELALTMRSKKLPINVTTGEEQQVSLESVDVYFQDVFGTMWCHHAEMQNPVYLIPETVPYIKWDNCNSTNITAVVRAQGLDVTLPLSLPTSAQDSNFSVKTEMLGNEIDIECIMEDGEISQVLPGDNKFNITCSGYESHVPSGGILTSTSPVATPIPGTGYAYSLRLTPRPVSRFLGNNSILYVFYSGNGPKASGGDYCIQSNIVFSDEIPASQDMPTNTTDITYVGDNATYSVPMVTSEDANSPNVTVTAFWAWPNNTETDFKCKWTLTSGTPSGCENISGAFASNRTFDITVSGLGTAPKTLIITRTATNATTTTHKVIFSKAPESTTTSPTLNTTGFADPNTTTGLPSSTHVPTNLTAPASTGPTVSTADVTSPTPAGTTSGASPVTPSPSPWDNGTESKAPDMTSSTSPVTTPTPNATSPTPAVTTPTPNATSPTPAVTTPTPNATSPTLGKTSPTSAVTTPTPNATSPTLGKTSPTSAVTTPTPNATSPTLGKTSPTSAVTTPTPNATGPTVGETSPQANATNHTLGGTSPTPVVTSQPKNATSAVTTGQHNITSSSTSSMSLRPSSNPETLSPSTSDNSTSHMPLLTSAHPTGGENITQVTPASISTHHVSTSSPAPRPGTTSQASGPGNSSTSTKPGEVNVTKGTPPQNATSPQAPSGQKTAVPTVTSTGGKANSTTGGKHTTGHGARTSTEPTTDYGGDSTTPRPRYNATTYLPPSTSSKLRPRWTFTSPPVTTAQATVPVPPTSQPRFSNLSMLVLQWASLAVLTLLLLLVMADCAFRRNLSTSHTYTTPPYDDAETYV
Write down the value, and be sure its unit follows.

- Molecule: "HB10: murine anti-EBV gp350 mAb, IgG1 κ; SEQ ID NO: 118 / 119; non-nAb (protein, heavy chain mAb HB10; light chain mAb HB10, murine anti-EBV gp350 mAb, IgG1 κ; non-nAb) chain 1: LSLPVSLGDQASISCRSSQSIVHSNGNTYLEWYLQKAGQSPKLLIYKVSNRFSGVPDRFGGSGSGTDFTLKISRVEAEDLGVYYCFQGSHVPYTFGGGTKLEIKRADAAPTV chain 2: SSLSASLGDRVTISCRASQDIGNYLNWYQQKPDGTVKLLIYYTSRLHSGVPSRFSGSGSGTDYSLTISNLEEEDIATYFCQQGNTLPPTFGGGTKLEIKRADAAPTV"
  Result: "14%"
- Molecule: "m72A1: EBV anti-gp350 neutralizing mouse antibody purified from HB168 hybridoma (ATCC); SEQ ID NO: 100 / 101 (antibody, V domains shown, heavy chain mAb 72A1; light chain mAb 72A1) VH: PELVKPGTSMKISCKASGSSFTDYTMNWMKQSHGKNLEWIGLINPYNGGTRYNQKFKGKATLTLDKSSSTAYMEVLSLTSEDSAVYYCAGGLRRVNWFAYWGQGTLVSVSAAKTTPPSVYPLAPGSAAQTNSMVTLG VL: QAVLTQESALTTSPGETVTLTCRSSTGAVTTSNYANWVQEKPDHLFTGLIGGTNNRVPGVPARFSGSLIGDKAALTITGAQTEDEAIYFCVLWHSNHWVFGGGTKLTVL"
  Result: "93%"

Which % inhibition of biotinylated nAbs (biotinylated m72A1) reading was recorded for the molecule HB22: murine anti-EBV gp350 mAb, IgG1 κ; SEQ ID NO: 130 / 131; non-nAb (antibody, V domains shown, heavy chain mAb HB22; light chain mAb HB22, murine anti-EBV gp350 mAb, IgG1 κ; non-nAb) VH: PGLVAPSQSLSITCTVSGFSLTNYGIHWVRQPPGKGLEWLVVIWSDGSTIYNSALKSRLSISKDNSKSQVFLKMNSLQTDDTAMYYCARNYYGNSYPAWFAYWGQGTLVTVSAAKTTPPSVYPLAPGSAAQTNSMVTLG VL: LSLPVSLGDQASISCRSSQSIVHSNGNTYLEWYLQKPGQSPKLLIYKVSNRFSGVPDRFSGSGSGTDFTLRISRVEAEDLGVYYCFQGSHVPWTFGGGTKLEIKRADAAPTV ?
3%
